Measured values drawn from patent US9938262B2 for this set.

pEC50 listing for selected molecules.
biological target: FSHR (Homo sapiens, UniProt P23945); construct: expressed in transfected cells; host or cells: CHO (Cho-FSHR-LUC-1-1-43); assay: EC50 of cyclic AMP production in CHO FSHR cells + EC20 FSH (Assay A); assay type: cell-based; conditions: CHO FSHR cells + EC20 FSH; Table 1; read-out: Assay A EC50 of cyclic AMP production
Sequence (P23945 18-695): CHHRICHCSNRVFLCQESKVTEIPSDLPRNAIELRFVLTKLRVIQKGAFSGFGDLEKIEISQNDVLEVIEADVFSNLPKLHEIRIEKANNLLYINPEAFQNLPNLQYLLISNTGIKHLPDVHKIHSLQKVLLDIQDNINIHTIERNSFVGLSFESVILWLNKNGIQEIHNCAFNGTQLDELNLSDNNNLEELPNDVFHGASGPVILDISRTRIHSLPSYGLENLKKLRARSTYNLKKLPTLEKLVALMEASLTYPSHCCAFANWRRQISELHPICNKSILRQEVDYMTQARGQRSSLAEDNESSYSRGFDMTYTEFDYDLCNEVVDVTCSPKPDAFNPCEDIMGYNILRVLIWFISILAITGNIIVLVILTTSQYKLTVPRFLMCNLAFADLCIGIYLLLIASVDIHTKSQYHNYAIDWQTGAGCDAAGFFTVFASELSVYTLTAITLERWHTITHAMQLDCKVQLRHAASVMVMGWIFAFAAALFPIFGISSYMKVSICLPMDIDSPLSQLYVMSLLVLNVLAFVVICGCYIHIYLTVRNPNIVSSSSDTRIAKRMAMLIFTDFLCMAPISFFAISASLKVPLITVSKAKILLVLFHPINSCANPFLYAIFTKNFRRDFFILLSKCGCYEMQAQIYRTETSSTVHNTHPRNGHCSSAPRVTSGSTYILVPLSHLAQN
Sequence (P01215 25-116 partner): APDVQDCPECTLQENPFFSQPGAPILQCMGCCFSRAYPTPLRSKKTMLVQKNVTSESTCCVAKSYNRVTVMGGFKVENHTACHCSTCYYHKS
Sequence (P01225 19-129 partner): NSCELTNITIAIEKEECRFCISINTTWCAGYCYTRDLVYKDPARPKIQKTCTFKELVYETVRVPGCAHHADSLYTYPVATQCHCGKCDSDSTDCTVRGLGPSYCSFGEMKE
pEC50: −log10 of the molar value.

# MOLECULE, pEC50
records = [
    ("Cc1ccc(C(=O)Nc2cc(C(=O)NC3CCN(C(=O)OC(C)(C)C)CC3)ccc2N2CCN(c3ccccc3C)CC2)o1", "5.00 to 6.00"),
    ("Cc1nc(C(=O)Nc2cc(C(=O)NCCCN3CCCC3=O)ccc2N2CCN(c3ccccc3C)CC2)c(C)o1", "5.00 to 6.00"),
    ("Cc1ccccc1N1CCN(c2ccc(C(=O)NCCCN3CCCC3)cc2NC(=O)c2ccco2)CC1", "5.00 to 6.00"),
]

[in] Value lookup for pEC50; key = Cc1ccccc1N1CCN(c2ccc(C(=O)NCCCc3cn[nH]c3)cc2NC(=O)c2ccco2)CC1
[out] 6.00 to 7.00

[in] Value lookup for pEC50; key = Cc1ccccc1N1CCN(c2ccc(C(=O)NCCC3C[C@H]4CC[C@@H]3C4)cc2NC(=O)c2ccco2)CC1 (stereo partly shown)
[out] 6.00 to 7.00

[in] Value lookup for pEC50; key = CC(=O)N(C)C[C@@H](NC(=O)c1ccc(N2CCN(c3ccccc3C)CC2)c(NC(=O)c2ccco2)c1)c1ccc(Cl)cc1
[out] 5.00 to 6.00

[in] Value lookup for pEC50; key = Cc1ccccc1N1CCN(c2ccc(C(=O)NCCCN3CCCC3=O)cc2NC(=O)c2csc(C(C)C)c2)CC1
[out] < 5.00
